Origin of values: the Human Domainome abundance scans (Beltran et al. 2025)

B1: Zinc finger homeobox protein 3, residues 2643 to 2698; numbered along this chain, Q15911 (parent)
chain: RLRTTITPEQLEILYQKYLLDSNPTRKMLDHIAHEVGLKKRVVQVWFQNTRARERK

# Variants of: B1
# assayText: abundance fitness (aPCA) (normalised: wild type 0, dead -1); higher = more abundant; growth selection in yeast, the domain comes from the species named
# testContext: Homo sapiens
Answer 0 (no) if abundance fitness is under -0.3, and 1 (yes) if it is -0.3 or more.

Recorded results for 5 variants are shown here.
primarysequence=RLRATITPEQLEILYQKYLLDSNPTRKMLDHIAHEVGLKKRVVQVWFQNTRARERK category="1 (yes)"
primarysequence=RLRTTITPEQLEILYQKYLLDSNPWRKMLDHIAHEVGLKKRVVQVWFQNTRARERK category="0 (no)"
primarysequence=RLRTTITPEQLEILYQKYLLDSNPTRKMLDHIAHEVGLKKRVVQVWFQNTRARDRK category="1 (yes)"
primarysequence=RLRTTITPEQLEILYQKYLLDSNPTRKMLDHIAHETGLKKRVVQVWFQNTRARERK category="1 (yes)"
primarysequence=RLRTTITPEQLEILYQKYLLDSNDTRKMLDHIAHEVGLKKRVVQVWFQNTRARERK category="0 (no)"

Req: Could you please find out whether RLRTTITPEQLEILYQKYLLDSNPTRKMLDHIAHEVGLLKRVVQVWFQNTRARERK has abundance fitness that meets -0.3 or exceeds it?
Resp: 0 (no)

Req: Could you please find out whether RNRTTITPEQLEILYQKYLLDSNPTRKMLDHIAHEVGLKKRVVQVWFQNTRARERK has abundance fitness that meets -0.3 or exceeds it?
Resp: 1 (yes)

Req: Could you please find out whether RLRTTITPEQLEILYQKYLLDSNPTRKMLDHIAHEVGLKKRVVQVWFQQTRARERK has abundance fitness that meets -0.3 or exceeds it?
Resp: 1 (yes)

Req: Could you please find out whether RLRTTITPEQLEILYQKYLLDSNPTRKMLDHIADEVGLKKRVVQVWFQNTRARERK has abundance fitness that meets -0.3 or exceeds it?
Resp: 1 (yes)

Req: Could you please find out whether RLRTTITPEQLEYLYQKYLLDSNPTRKMLDHIAHEVGLKKRVVQVWFQNTRARERK has abundance fitness that meets -0.3 or exceeds it?
Resp: 1 (yes)

Req: Could you please find out whether RLRTTITPEQLEILYQKYLLDSNPTRKMLDHIAHEVGLKKRVVQLWFQNTRARERK has abundance fitness that meets -0.3 or exceeds it?
Resp: 1 (yes)
